# Tested on: SK-OV-3 ovarian
# method: NCI-60 one-dose screen, 48 h (100 = growth as untreated, 0 = no growth, -100 = all killed)
# experimental_parameters: 10 µM unless noted
Compounds without any hit were thinned out: in the full panel of roughly 83,000, 20% have a hit. Active and inactive are the calls of the source. Rule for the calls: active = growth percent below 10; inactive = the rest.
reported_metric: growth

molecule	test_value
Fc1cc2c(cc1Cl)N(c1ncnc3ccc(-c4ccc5n[nH]nc5c4)cc13)CC2	95.6% (inactive)
c1cnc2c(-c3nc4ccc5[nH]ncc5c4c4c3CCCC4)c[nH]c2c1	51.5% (inactive)
COc1cc(C2CC(c3ccc(Nc4nc(Nc5ccc(Cl)cc5)nc(Nc5ccc(Cl)cc5)n4)cc3)=NN2C(C)=O)cc(OC)c1OC (centres undefined)	126% (inactive)
O=C(/C=C/c1ccccc1)Nc1ncc(Cc2ccccc2Cl)s1	44.4% (inactive)
O=C(/C=C/c1cn(-c2ccccc2)nc1-c1ccc(Cl)cc1)c1ccc(F)cc1	82.6% (inactive)
CCC(=C(c1ccc(OCCN2CCCCC2)cc1)c1ccc(OCCN2CCCCC2)cc1)c1ccc(Cl)cc1	-85.7% (active)
COCCOc1cc2ncnc(N3CCN(c4cc(S(C)(=O)=O)c(C)cc4Cl)CC3)c2cc1OCCOC	105% (inactive)
c1ccc(Cn2cc3c(c2)-c2oncc2CC3)cc1	13.5% (inactive)
CC/C(=C(/c1ccc(Cl)cc1)c1ccc(OCCN2CCCCC2)cc1)c1ccc(OC)cc1	94.9% (inactive)

* * *

# System: SF-268 CNS
# method: NCI-60 one-dose screen, 48 h (100 = growth as untreated, 0 = no growth, -100 = all killed)
# experimental_parameters: 10 µM unless noted
About 83,000 compounds went through this panel and 20% of them were active in at least one assay; those are over-represented in the sample as a whole. The source made the active and inactive calls. Rule for the calls: active = growth percent below 10; inactive = the rest.

smiles_string	growth
O=S(=O)(Nc1ccc(Cl)c(C(F)(F)F)c1)c1ccc(-c2cnc(C3CC3)o2)cc1	13.7% (inactive)
O=C1Nc2ccccc2/C1=C/c1cccn1CCCCn1c2ccccc2c(=O)c2ccccc21	83.1% (inactive)
CNc1nnc2n(-c3ccccc3)c(=O)c3cnn(-c4ccccc4)c3n12	96.1% (inactive)
CCOC(=O)c1c(C(=O)c2cn(C)c3ccc(Br)cc23)c(-c2cn(C)c3ccc(Br)cc23)n(NC(=O)OC(C)(C)C)c1C	82.4% [100 µM] (inactive)
CCNCCNc1cc(C2CCCCC2)c(C#N)c2nc3ccccc3n12	22.3% (inactive)

* * *

Consider the following compounds and their measured growth readings.
# System: M14 melanoma
# method: NCI-60 one-dose screen, 48 h (100 = growth as untreated, 0 = no growth, -100 = all killed)
# experimental_parameters: 10 µM unless noted
Compounds without any hit were thinned out: in the full panel of roughly 83,000, 20% have a hit. Calls of active or inactive are those of the source. The calls were made as follows: active = growth percent below 10; inactive = the rest.
reported_metric: growth

smiles_string	test_value
O=S(=O)(NCCNc1nccc(-c2c(-c3ccc(F)c(O)c3)nc3occn23)n1)c1ccc(Cl)cc1	26.6% (inactive)
O=C1Nc2ccc(C(=O)O)cc2/C1=N/c1nnc(Sc2ccccc2)s1	104% (inactive)
COc1ccc(/C=C/C(=O)c2cccc(OCCCCOc3cccc(C(=O)/C=C/c4ccc(OC)c(OC)c4)c3)c2)cc1OC	78.6% (inactive)
CN(C)CCNC(=O)c1cc2c3cc(Cl)ccc3[nH]c2c2ncccc12	-81% (active)
O=c1[nH]c(Cc2nc3ccccc3s2)nc2cc(Br)ccc12	35.2% (inactive)
